System: clinical MDR Staphylococcus epidermidis isolates
EXPERIMENTAL_DETAILS: MIC, broth microdilution, 81 clinical MDR strains
Format: cell-based
PARTICULARS: Staphylococcus epidermidis, clinical strain 81 (Table S2); read-out: MIC
READOUT_NAME: MIC
Give the number first and the unit second.

// solved cases for MIC follow
CC(=O)NC[C@H]1CN(c2ccc(N3CCOCC3)c(F)c2)C(=O)O1 [linezolid, reference compound] ... 50 µg/mL
O=S(=O)(NC1CCN(CCC(Oc2ccc(C(F)(F)F)cc2)c2cccs2)CC1)c1cccc(C(F)(F)F)c1 (stereo not drawn) [Compound 21] ... 50 µg/mL
O=C(Nc1cccc(Cl)c1)NC1CCN(CCC(Oc2ccc(C(F)(F)F)cc2)c2cccs2)CC1 (stereo not drawn) [Compound 25] ... 0.2 µg/mL

For every item in the list below, what is its measured MIC?
1. O=S(=O)(NC1CCN(CCC(Oc2ccc(C(F)(F)F)cc2)c2cccs2)CC1)c1cccc(Br)c1 (stereo not drawn) [Compound 18]
2. O=S(=O)(NC1CCN(CCC(Oc2ccc(C(F)(F)F)cc2)c2ccccc2)CC1)c1cccc(Cl)c1 (stereo not drawn) [Compound 12]
3. O=S(=O)(NC1CCN(CCC(Oc2ccc(C(F)(F)F)cc2)c2cccs2)CC1)c1cccc(Cl)c1 (stereo not drawn) [Compound 14]

## Result
1: 3.12 µg/mL; 2: 6.25 µg/mL; 3: 6.25 µg/mL

====

Tested on: biofilm-producing Staphylococcus epidermidis strains
EXPERIMENTAL_DETAILS: Inhibition of biofilm formation (MBIC, resazurin)
Assay type: cell-based
PARTICULARS: clinical strain 6 (Table S4)
Would you mind telling me the reported MBIC of each entry?
One number for each entry, in µg/mL.

Completed entries (count: 3):
O=C(Nc1cccc(Cl)c1)NC1CCN(CCC(Oc2ccc(C(F)(F)F)cc2)c2cccs2)CC1 (stereo not shown) [Compound 25] ... 15.6
O=S(=O)(NC1CCN(CCC(Oc2ccc(C(F)(F)F)cc2)c2ccccc2)CC1)c1cccc(Cl)c1 (stereo not shown) [Compound 12] ... 125
CC(=O)NC[C@H]1CN(c2ccc(N3CCOCC3)c(F)c2)C(=O)O1 [linezolid, reference compound] ... 15.6

Would you kindly look at the next entry?
## Task Provide value of MBIC for this record tested with biofilm-producing Staphylococcus epidermidis strains: O=S(=O)(NC1CCN(CCC(Oc2ccc(C(F)(F)F)cc2)c2cccs2)CC1)c1cccc(Cl)c1 (stereo not shown) [Compound 14]
## Result 125

====

Tested on: clinical MDR Staphylococcus epidermidis isolates
EXPERIMENTAL_DETAILS: MIC, broth microdilution, 81 clinical MDR strains
Format: cell-based
PARTICULARS: Staphylococcus epidermidis, clinical strain 76 (Table S2); read-out: MIC
READOUT_NAME: MIC (µg/mL)
Give bare numbers, in µg/mL.

Would you please look over these solved cases?
O=S(=O)(NC1CCN(CCC(Oc2ccc(C(F)(F)F)cc2)c2cccs2)CC1)c1cccc(Br)c1 (stereo not drawn) [Compound 18] ... 50
O=S(=O)(NC1CCN(CCC(Oc2ccc(C(F)(F)F)cc2)c2cccs2)CC1)c1cccc(Cl)c1 (stereo not drawn) [Compound 14] ... 3.12
CC(=O)NC[C@H]1CN(c2ccc(N3CCOCC3)c(F)c2)C(=O)O1 [linezolid, reference compound] ... 1.6

Go through the items and report each one's MIC.
1. O=C(Nc1cccc(Cl)c1)NC1CCN(CCC(Oc2ccc(C(F)(F)F)cc2)c2cccs2)CC1 (stereo not drawn) [Compound 25]
2. O=S(=O)(NC1CCN(CCC(Oc2ccc(C(F)(F)F)cc2)c2cccs2)CC1)c1cccc(C(F)(F)F)c1 (stereo not drawn) [Compound 21]

## Result
1: 1.6; 2: 50

## Task Given the entry O=S(=O)(NC1CCN(CCC(Oc2ccc(C(F)(F)F)cc2)c2ccccc2)CC1)c1cccc(Cl)c1 (stereo not drawn) [Compound 12] , report its measured MIC.
## Result 0.8

====

I'd be grateful if you could share measured MBIC for these entries.
Tested on: biofilm-producing Staphylococcus epidermidis strains
EXPERIMENTAL_DETAILS: Inhibition of biofilm formation (MBIC, resazurin)
Assay type: cell-based
PARTICULARS: clinical strain 5 (Table S4)
Answers are plain numbers, in µg/mL.

Solved cases below.
O=S(=O)(NC1CCN(CCC(Oc2ccc(C(F)(F)F)cc2)c2cccs2)CC1)c1cccc(Cl)c1 (stereo not shown) ... 62.5
O=S(=O)(NC1CCN(CCC(Oc2ccc(C(F)(F)F)cc2)c2ccccc2)CC1)c1cccc(Cl)c1 (stereo not shown) ... 62.5

Hi team, please reply with MBIC for each item in this list.
1. O=C(Nc1cccc(Cl)c1)NC1CCN(CCC(Oc2ccc(C(F)(F)F)cc2)c2cccs2)CC1 (stereo not shown)
2. CC(=O)NC[C@H]1CN(c2ccc(N3CCOCC3)c(F)c2)C(=O)O1 [linezolid, reference compound]

## Result
[15.6, 15.6]

====

Tested on: clinical MDR Staphylococcus epidermidis isolates
EXPERIMENTAL_DETAILS: MIC, broth microdilution, 81 clinical MDR strains
Type: cell-based
PARTICULARS: Staphylococcus epidermidis, clinical strain 38 (Table S2); read-out: MIC
READOUT_NAME: MIC (µg/mL)
Answers are plain numbers, in µg/mL.

Solved entries (count: 5):
O=C(Nc1cccc(Cl)c1)NC1CCN(CCC(Oc2ccc(C(F)(F)F)cc2)c2cccs2)CC1 (stereo not drawn) [Compound 25] ... 1.6
O=S(=O)(NC1CCN(CCC(Oc2ccc(C(F)(F)F)cc2)c2cccs2)CC1)c1cccc(Br)c1 (stereo not drawn) [Compound 18] ... 50
O=S(=O)(NC1CCN(CCC(Oc2ccc(C(F)(F)F)cc2)c2ccccc2)CC1)c1cccc(Cl)c1 (stereo not drawn) [Compound 12] ... 50
CC(=O)NC[C@H]1CN(c2ccc(N3CCOCC3)c(F)c2)C(=O)O1 [linezolid, reference compound] ... 0.8
O=S(=O)(NC1CCN(CCC(Oc2ccc(C(F)(F)F)cc2)c2cccs2)CC1)c1cccc(Cl)c1 (stereo not drawn) [Compound 14] ... 12.5

Let us move to another entry and its MIC.
## Task Given the entry O=S(=O)(NC1CCN(CCC(Oc2ccc(C(F)(F)F)cc2)c2cccs2)CC1)c1cccc(C(F)(F)F)c1 (stereo not drawn) [Compound 21] , what MIC was observed with clinical MDR Staphylococcus epidermidis isolates?
## Result 50

====

Test system: clinical MDR Staphylococcus epidermidis isolates
EXPERIMENTAL_DETAILS: MIC, broth microdilution, 81 clinical MDR strains
Type: cell-based
PARTICULARS: Staphylococcus epidermidis; 81 clinical strains; concentration inhibiting growth of 50% clinical isolates
READOUT_NAME: MIC50 (µg/mL)
Numbers only, in µg/mL.

Hey, quick one: what's MIC50 for each of these?
1. CC(=O)NC[C@H]1CN(c2ccc(N3CCOCC3)c(F)c2)C(=O)O1 [linezolid, reference compound]
2. O=S(=O)(NC1CCN(CCC(Oc2ccc(C(F)(F)F)cc2)c2cccs2)CC1)c1cccc(Cl)c1 (stereo not shown) [Compound 14]
3. O=S(=O)(NC1CCN(CCC(Oc2ccc(C(F)(F)F)cc2)c2cccs2)CC1)c1cccc(C(F)(F)F)c1 (stereo not shown) [Compound 21]
4. O=S(=O)(NC1CCN(CCC(Oc2ccc(C(F)(F)F)cc2)c2cccs2)CC1)c1cccc(Br)c1 (stereo not shown) [Compound 18]

## Result
1. 0.8
2. 6.25
3. 50
4. 50
